# tested-on: Recombinant human PKC-theta (His-tagged 362-706) (Homo sapiens, UniProt Q04759)
# Construct: Recombinant human PKC-theta (His-tagged 362-706); His
# Sequence (Q04759 362-706): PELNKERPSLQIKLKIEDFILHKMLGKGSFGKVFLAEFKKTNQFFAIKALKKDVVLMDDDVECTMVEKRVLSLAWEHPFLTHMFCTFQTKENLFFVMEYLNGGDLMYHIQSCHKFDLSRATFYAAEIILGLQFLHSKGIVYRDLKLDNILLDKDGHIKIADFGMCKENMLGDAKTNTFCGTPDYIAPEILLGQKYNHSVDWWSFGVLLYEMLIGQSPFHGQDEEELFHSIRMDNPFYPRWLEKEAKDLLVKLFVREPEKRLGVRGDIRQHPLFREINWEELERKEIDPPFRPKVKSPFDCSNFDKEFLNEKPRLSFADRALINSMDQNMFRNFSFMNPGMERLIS
# experimental-details: PKC-theta inhibition assay (HTRF KinEASE kit)
# Assay type: biochemical
# condition-label: ATP 6.5 μM; STK substrate 525 nM; binned A to H; read-out: PKC-theta HTRF pIC50 (binned) (converted)
endpoint-label: IC50

# molecule, IC50
data = [
    ("O=c1[nH]c2nccc(-c3cccc(N4CCNCC4)c3)c2o1 [Example 6]", "> 1000 nM"),
]

Lab note: each molecule below needs its IC50 filled in.
1. COC1(C)C(=O)Nc2nccc(-c3cc(F)cc(N4CCNCC4)c3)c21 (stereo not shown) [Example 57]
2. C[C@@H]1CN(c2cc(C(F)(F)F)cc(-c3ccnc4c3[C@](C)(O)C(=O)N4)n2)[C@H](C)CN1 (single isomer, unassigned) [Example 119]
3. C[C@H]1CN(c2cc(Cl)cc(-c3ccnc4c3C(C)(O)C(=O)N4)n2)CCN1 (stereo partly shown) [Example 208]
4. C[C@H]1CN(c2cc(-c3ccnc4c3C(C)(O)C(=O)N4)cc(C(F)(F)F)c2)CCN1 (stereo partly shown) [Example 78]
5. C[C@H]1CN(c2cc(Cl)cc(-c3ccnc4c3[C@](C)(O)C(=O)N4)n2)CCN1 (single isomer, unassigned) [Example 110]

Result:
["31.6 to 100 nM", "3.16 to 10 nM", "1 to 3.16 nM", "10 to 31.6 nM", "0.316 to 1 nM"]

====

I'd be grateful if you could share measured IC50 for these entries.
# tested-on: Recombinant human PKC-theta (His-tagged 362-706) (Homo sapiens, UniProt Q04759)
# Construct: Recombinant human PKC-theta (His-tagged 362-706); His
# experimental-details: PKC-theta inhibition assay (HTRF KinEASE kit)
# Format: biochemical
# condition-label: ATP 6.5 μM; STK substrate 525 nM; binned A to H; read-out: PKC-theta HTRF pIC50 (binned) (converted)

# compound, tested-on, assay-result
measured = [
    ("CC[C@H]1CN(c2cc(C(F)(F)F)cc(-c3ccnc4c3[C@](C)(OC)C(=O)N4)n2)CCN1 (single isomer, unassigned)", "Recombinant human PKC-theta (His-tagged 362-706) (Homo sapiens, UniProt Q04759)", "10 to 31.6 nM"),
]

Need IC50 for each of these compounds.
1. CC1(C)C(=O)Nc2nccc(-c3cc(C(F)(F)F)cc(N4C[C@H]5CC[C@@H](C4)N5)n3)c21
2. C[C@@]1(O)C(=O)Nc2nccc(-c3cc(C(F)(F)F)cc(N4CCNC(C(F)F)C4)n3)c21 (single isomer, unassigned)

Result:
1. 10 to 31.6 nM
2. 10 to 31.6 nM

====

# tested-on: Recombinant human PKC-theta (His-tagged 362-706) (Homo sapiens, UniProt Q04759)
# Construct: Recombinant human PKC-theta (His-tagged 362-706); His
# experimental-details: PKC-theta inhibition assay (HTRF KinEASE kit)
# Type: biochemical
# condition-label: ATP 6.5 μM; STK substrate 525 nM; binned A to H; read-out: PKC-theta HTRF pIC50 (binned) (converted)
Task for the reader: assign each of the following compounds its reported IC50.

# compound, IC50
records = [
    ("CC1(F)CNCCN(c2cc(Cl)cc(-c3ccnc4c3[C@](C)(O)C(=O)N4)n2)C1 (single isomer, unassigned)", "3.16 to 10 nM"),
    ("C[C@@H]1CN(c2cc(-c3ccnc4c3C(C)(O)C(=O)N4)cc(C(F)(F)F)c2)CCN1 (stereo partly drawn)", "31.6 to 100 nM"),
    ("CC1(C)C(=O)Nc2nccc(-c3nc(N4CCNCC4)c(F)cc3Cl)c21", "100 to 316 nM"),
    ("C[C@@H]1CNCCN1c1cc(Cl)cc(-c2ccnc3c2C(C)(C)C(=O)N3)n1", "1 to 3.16 nM"),
    ("C[C@H]1CN(c2cc(-c3ccnc4c3[C@@](C)(O)C(=O)N4)cc(C(F)(F)F)c2)CCN1 (single isomer, unassigned) [Example 82]", "316 to 1000 nM"),
]

Items follow; give IC50 for each.
1. CC1(C)C(=O)Nc2nccc(-c3ccnc(N4CCNCC4)c3)c21
2. CC[C@H]1CN(c2cc(Cl)cc(-c3ccnc4c3C(C)(OC)C(=O)N4)n2)CCN1 (stereo partly drawn)
3. CC1(C)C(=O)Nc2nccc(-c3cccc(N4CCNCC4)c3Cl)c21

Result:
1. > 1000 nM
2. 3.16 to 10 nM
3. > 1000 nM

====

# tested-on: Recombinant human PKC-theta (His-tagged 362-706) (Homo sapiens, UniProt Q04759)
# Construct: Recombinant human PKC-theta (His-tagged 362-706); His
# experimental-details: PKC-theta inhibition assay (HTRF KinEASE kit)
# Type: biochemical
# condition-label: ATP 6.5 μM; STK substrate 525 nM; binned A to H; read-out: PKC-theta HTRF pIC50 (binned) (converted)
I'd appreciate it if you could supply IC50 values for the items below.

Consider the following illustrative entries.
# compound, endpoint-label, assay-result
rows = [
    ("CC[C@]1(C)C(=O)Nc2nccc(-c3cc(C(C)(F)F)cc(N4CCNC[C@H]4C)n3)c21 (single isomer, unassigned)", "IC50", "0.000316 to 0.001 µM"),
    ("CC[C@@H]1CN(c2cc(C(F)(F)F)cc(-c3ccnc4c3C(C)(O)C(=O)N4)n2)CCN1 (stereo partly drawn)", "IC50", "0.01 to 0.0316 µM"),
]

Please report IC50 for every entry that follows.
1. C[C@H](O)[C@@H]1CN(c2cc(C(F)(F)F)cc(-c3ccnc4c3C(C)(C)C(=O)N4)n2)CCN1
2. C[C@@]1(O)C(=O)Nc2nccc(-c3cc(C(F)(F)F)cc(N4C[C@H]5CC[C@@H](C4)N5)n3)c21 (single isomer, unassigned)
3. CC1(C)C(=O)Nc2ncc(Br)c(-c3cc(F)cc(N4CCNCC4)c3)c21

Result:
1. 0.01 to 0.0316 µM
2. 0.01 to 0.0316 µM
3. 0.0316 to 0.1 µM

Value sought for every listed compound: IC50.
1. CCC1(C)C(=O)Nc2nccc(-c3cc(C(F)(F)F)cc(N4CCNC[C@H]4C)n3)c21 (stereo partly drawn)
2. C[C@H]1CN(c2cc(C(F)(F)F)cc(-c3ccnc4c3[C@](C)(O)C(=O)N4)n2)CCN1 (single isomer, unassigned)
3. C[C@@H]1CN(c2cc(C(F)(F)F)cc(-c3ccnc4c3C(C)(C)C(=O)N4)n2)CCCN1

Result:
["0.001 to 0.00316 µM", "0.001 to 0.00316 µM", "0.00316 to 0.01 µM"]

For each of the compounds below, state IC50.
1. CC1(C)C(=O)Nc2nccc(-c3cc(C(F)(F)F)cc(NC4CCNC4)n3)c21 (stereo not drawn)
2. C[C@@H]1CNCCN(c2cc(C(F)(F)F)cc(-c3ccnc4c3C(C)(C)C(=O)N4)n2)C1
3. CC1C(=O)Nc2nccc(-c3cc(F)cc(N4CCNCC4)c3)c21 (stereo not drawn)
4. C[C@@H]1CN(c2cccc(-c3ccnc4[nH]c(=O)[nH]c34)c2)C[C@H](C)N1
5. CC1(C)C(=O)Nc2ncc(Cl)c(-c3cc(F)cc(N4CCNCC4)c3)c21
6. O=c1[nH]c2nccc(-c3cc(C(F)(F)F)cc(N4CCNCC4)n3)c2[nH]1
7. CO[C@]1(C)C(=O)Nc2nccc(-c3cc(C(F)(F)F)cc(N4CCNC[C@H]4C)n3)c21 (single isomer, unassigned) [Example 158]

Result:
0.0316 to 0.1 µM
0.00316 to 0.01 µM
0.01 to 0.0316 µM
> 1 µM
0.0316 to 0.1 µM
0.0316 to 0.1 µM
0.00316 to 0.01 µM

====

Assignment: determine reported PKC-theta/PKC-delta selectivity for the given compounds.
# tested-on: Recombinant human PKC-delta (His-tagged 345-676) (Homo sapiens, UniProt Q05655)
# Construct: PKC-delta (His-tagged 345-676); His
# Sequence (Q05655 345-676): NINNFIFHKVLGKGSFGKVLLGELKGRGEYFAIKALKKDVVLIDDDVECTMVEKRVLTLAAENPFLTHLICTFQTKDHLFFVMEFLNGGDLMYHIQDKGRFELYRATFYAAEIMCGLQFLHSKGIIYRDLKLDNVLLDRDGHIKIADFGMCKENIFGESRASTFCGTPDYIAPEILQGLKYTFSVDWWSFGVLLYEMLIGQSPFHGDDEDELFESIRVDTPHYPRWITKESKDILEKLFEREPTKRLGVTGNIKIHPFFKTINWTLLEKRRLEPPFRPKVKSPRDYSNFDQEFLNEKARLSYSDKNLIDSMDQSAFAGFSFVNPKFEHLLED
# experimental-details: PKC-delta inhibition assay (HTRF KinEASE kit)
# Format: biochemical
# condition-label: ratio, PKC-theta vs PKC-delta HTRF
Numbers only.

Below, each entry is followed by its recorded PKC-theta/PKC-delta selectivity result.
# compound, PKC-theta/PKC-delta selectivity
measured = [
    ("CC[C@@H]1CN(c2cc(C(F)(F)F)cc(-c3ccnc4c3C(C)(O)C(=O)N4)n2)CCN1 (stereo partly drawn)", 12),
    ("C[C@H]1CCNCCN1c1cc(C(F)(F)F)cc(-c2ccnc3c2C(C)(C)C(=O)N3)n1", 28),
]

Let's switch to this compound now.
Task: Sample C[C@@H]1CCN(c2cc(C(F)(F)F)cc(-c3ccnc4c3C(C)(C)C(=O)N4)n2)CCN1 — what was its PKC-theta/PKC-delta selectivity?
Result: 20
